# System: SN12C
# experiment: NCI tumour cell line growth inhibition, 48 h
Activity calls are given as the source filed them. Cut-off read from the data, not from the text of the source: active = GI50 up to about 1.1 µM and inactive = higher.
Outcome codes: active, inactive

# compound, label
data = [
    ("CC(C)OCC(O)COc1cc(=O)oc2ccccc12 (stereo not drawn)", "inactive"),
    ("CC1(C)OC(=O)C(C)(C)OC1=O", "inactive"),
    ("COC(=O)C1C(O)CC(c2ccccn2)N(Cc2ccccc2)C1c1ccccn1 (stereo not drawn)", "inactive"),
    ("O=[N+]([O-])c1ccc(C2=NOC(c3ccccc3)N2C23CC4CC(CC(C4)C2)C3)cc1 (stereo not drawn)", "inactive"),
    ("COc1ccc(-c2cc(=O)c3cc(O)ccc3o2)c(OC)c1OC", "inactive"),
    ("CC(C)(C)c1cc2ccc(C(N)=O)cc2c(=O)[nH]1", "inactive"),
    ("CCCN(CCC)CCc1cc(C(C)=O)n(S(=O)(=O)c2ccc(C)cc2)c1", "inactive"),
    ("CCCCCNC(=O)OC1CCn2c1nc1c2C(=O)C(C)=C(N2CC2)C1=O (stereo not drawn)", "inactive"),
    ("CC(=O)OCC1OC(OC2CC3C(C)(C)C(O)CC[C@]3(C)C3CCC45CC4(CCC5[C@@H](C)CC(O)C(O)C(C)(C)O)[C@]23C)C(O)C(O)C1O (stereo partly drawn)", "inactive"),
    ("COC[C@@H](/N=C/c1ccc(OC)cc1)C(C)C", "inactive"),
    ("Cc1nnc2n1N=C(c1ccccc1)/C(=C/c1ccc(-c3ccc(Cl)cc3)o1)S2", "inactive"),
    ("c1ccc(CN2CCCN3CCN(CCCN(Cc4ccccc4)CC3)CC2)cc1", "inactive"),
    ("COc1ccc(CCN2CCOCC2)cc1", "inactive"),
    ("COc1c(C(=O)/C(=N/Nc2ccccc2)C(C)=O)c(O)c(OC)c2occc12", "inactive"),
    ("CCOP(=O)(O)C(Nc1ccc(/N=N/c2ccccc2)cc1)c1cccc(C(Nc2ccc(/N=N/c3ccccc3)cc2)P(=O)(O)OCC)c1 (stereo not drawn)", "inactive"),
    ("Nc1ccccc1N/C=C\\C(=O)C(Cl)(Cl)Cl", "inactive"),
    ("O=c1cc(CSc2c(-c3ccccc3)c(=O)n(-c3ccccc3)c(=S)n2-c2ccccc2)[nH]c(=O)[nH]1", "inactive"),
    ("O=C(NCCCCNc1cccccc1=O)OCc1ccccc1", "inactive"),
    ("CC(=O)O[C@H]1CC[C@@]2(C)C(=CC[C@H]3[C@@H]4CC[C@H](c5cc(C(F)(F)F)n(C(C)=O)n5)[C@@]4(C)CC[C@@H]32)C1", "inactive"),
    ("C=CCOC(=O)N1[C@H]2C#C/C=C\\C#C[C@]3(O)C(=O)C[C@H](C)[C@]24O[C@]43C2=CC(=O)C=CC21OC (stereo partly drawn)", "inactive"),
    ("C/C(=N\\NC(=O)c1ccncc1)c1cccc(C(F)(F)F)c1", "inactive"),
    ("COc1ccc(OC)c(NC(=O)c2c(Cl)c(Cl)c(Cl)c(Cl)c2-c2nc3ccccc3[nH]2)c1", "inactive"),
    ("O=C1CC2(CCC(O)(c3ccccc3)C(C(=O)c3ccccc3)C2)C(=O)c2ccccc2N1 (stereo not drawn)", "inactive"),
    ("CC1=C(C(=O)Nc2ccccc2)C(c2cccc3ccccc23)C(C(=O)Nc2ccccc2)=C(C)N1", "inactive"),
    ("COC(=O)[C@@H]1[C@H](O)[C@H](C)[C@H](O)[C@H](C)/C=C\\C=C(\\C)C(=O)Nc2c(C)c(OC(C)=O)c3c(c2O)C(=O)C(C)=C2OCOC(=C23)/C(C)=C/[C@@H](O)[C@H](O)[C@@H](C)[C@H]1OC(C)=O", "inactive"),
    ("Cc1ccc(NC(=O)C(=O)CC(=O)c2ccccc2)cc1C", "inactive"),
    ("Cc1ccc(S(=O)(=O)Nn2c(O)c(C#N)c(-c3ccc([N+](=O)[O-])cc3)c(C#N)c2=O)cc1", "inactive"),
    ("COc1cc(C2c3[nH]c4ccccc4c3[C@@H](Nc3ccc(C#N)cc3)[C@H]3COC(=O)N23)cc(OC)c1O (stereo partly drawn)", "active"),
]
